target: Neu5Ac(b2-6)Gal(b1-4)GlcNAc; experiment: glycan array binding signal (z-score within array); higher = stronger binding; conditions: glycan notation: IUPAC condensed, linker removed
About 410 targets per protein were measured; listed, in parts, are those with the strongest signals and a random draw of the rest.
quantity-measured: glycan array binding signal (z-score)
I only need the number, thanks.

Exercise: Item Threefoil (Haloarcula marismortui) (protein) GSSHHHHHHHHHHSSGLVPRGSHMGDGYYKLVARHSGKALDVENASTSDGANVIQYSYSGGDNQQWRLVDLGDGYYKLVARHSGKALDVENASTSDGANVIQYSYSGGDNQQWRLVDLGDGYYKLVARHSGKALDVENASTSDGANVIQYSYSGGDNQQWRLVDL has what recorded glycan array binding signal (z-score)?
Key: -0.309

Exercise: Which glycan array binding signal (z-score) reading was recorded for the binder Ficolin A (Rattus norvegicus), Q9WTS8 (protein) MWWPMLWAFPVLLCLCSSQALGQESGACPDVKIVGLGAQDKVAVIQSCPSFPGPPGPKGEPGSPAGRGERGLQGSPGKMGPPGSKGEPGTMGPPGVKGEKGERGTASPLGQKELGDALCRRGPRSCKDLLTRGIFLTGWYTIYLPDCRPLTVLCDMDVDGGGWTVFQRRVDGSINFYRDWDSYKRGFGNLGTEFWLGNDYLHLLTANGNQELRVDLREFQGQTSFAKYSSFQVSGEQEKYKLTLGQFLEGTAGDSLTKHNNMAFSTHDQDNDTNGGKNCAALFHGAWWYHDCHQSNLNGRYLPGSHESYADGINWLSGRGHRYSYKVAEMKIRAS ?
Key: 1.16

Exercise: # input binder: SUN4 (Saccharomyces cerevisiae), P53616 (protein) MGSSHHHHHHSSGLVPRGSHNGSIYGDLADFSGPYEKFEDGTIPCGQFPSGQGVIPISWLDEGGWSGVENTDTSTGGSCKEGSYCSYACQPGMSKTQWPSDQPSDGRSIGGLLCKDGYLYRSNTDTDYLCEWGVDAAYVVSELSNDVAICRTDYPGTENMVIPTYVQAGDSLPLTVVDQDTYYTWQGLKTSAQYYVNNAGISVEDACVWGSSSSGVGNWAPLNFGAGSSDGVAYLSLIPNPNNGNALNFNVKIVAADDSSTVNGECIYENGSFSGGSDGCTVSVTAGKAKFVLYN ; wanted: its glycan array binding signal (z-score)
Key: -0.182

This collection of values is drawn from the supplement of paper PMC8728848.
